test: chemical genetic growth profiling, strain panel (AID 1159580);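 further: tested at 20 µM; growth read once vehicle control cultures reached saturation at 30 °C; 1 = growth at the plate median or of vehicle wells; lower values mean less growth of the strain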; conditions: S. cerevisiae deletion strains, growth OD, locus YDR318W, strain mcm21, hits give low values
Screen size: about 5,500 compounds; about 2,000 (36%) were called active. Not shown: some 18% with an inconclusive outcome. This is one part of the list.
Let's look at some molecules and their measured normalized growth.

| Molecule | normalized growth |
| --- | --- |
| CCC(=O)O[C@H]1[C@H](O[C@@H]2[C@@H](C)[C@H](O[C@H]3C[C@@](C)(OC)[C@@H](O)[C@H](C)O3)[C@@H](C)C(=O)O[C@H](CC)[C@@](C)(O)[C@H](O)[C@@H](C)C(=O)[C@H](C)C[C@@]2(C)O)O[C@H](C)C[C@@H]1N(C)C | 0.99 |
| c1ccc(N=Nc2ccccc2)cc1 | 1.02 |
| COc1ccc2cc([C@H](C)C(=O)O)ccc2c1 | 0.996 |
| O=C(O)C1(O)C[C@@H](O)C(O)[C@H](O)C1 (some centres undefined) | 0.997 |
| OCCN1C[C@@H](O)[C@@H](O)C(O)C1CO (some centres undefined) | 1 |
| COc1cc2c(cc1OC)C1C(=O)c3c(OC)cc4c(c3OC1CO2)CCC(C)(C)O4 (centres undefined) | 0.988 |
| C=C1C([C@]2(C)C(CC(=O)OC)[C@@](C)(COC(C)=O)OC(=O)C[C@@H]2OC(C)=O)[C@@H](OC=O)[C@H](OC(=O)C(OC(C)=O)C(C)CC)[C@@]2(C)[C@H](c3ccoc3)CC(=O)C12O (some centres undefined) | 1.03 |
| C=Cc1c2[nH]c(c1C)C=c1[nH]c(c(C)c1C=C)=CC1N=C(C=c3[nH]c(c(C)c3CCC(=O)O)=C2)C(CCC(=O)O)=C1C (centres undefined) | 0.989 |
| COc1cc2c(cc1OC)C1C(=O)c3ccc4c(c3OC1CO2)CCC(C)(C)O4 (centres undefined) | 1.01 |
| CC1CC2C3CCC4=CC(=O)C=C[C@]4(C)[C@@]3(F)[C@@H](O)C[C@]2(C)[C@@]1(O)C(=O)CO (some centres undefined) | 0.983 |
| CCOC(=O)C(C)(C)Oc1ccc(Cl)cc1 | 1 |
| CC(=O)c1c(O)c(C)c(O)c2c1oc1c(C(C)=O)c(O)c(C)c(O)c12 | 0.934 |
| CCN(CC)CCNC(=O)c1cc(Br)c(N)cc1OC | 1 |
| C=C(C)C1CNC(C(=O)O)C1CC(=O)O (centres undefined) | 1.01 |
| S=c1nc[nH]c2nc[nH]c12 | 0.977 |
| ClC1=C(Cl)C2(Cl)C3C(Cl)C=CC3C1(Cl)C2(Cl)Cl (centres undefined) | 0.978 |
| COc1ccc(OC)c(C(O)C(C)N)c1 (centres undefined) | 0.977 |
| CN(C)CC/C=C1\c2ccccc2Sc2ccc(Cl)cc21 | 0.982 |
| CC1CC2C3CC(F)C4=CC(=O)C=CC4(C)C3(F)C(O)CC2(C)C1(O)C(=O)CO (centres undefined) | 1.05 |
| CC(N)CCCC(C)(C)O (centres undefined) | 1.01 |
| C=C(C)[C@@H]1[C@H]2OC(=O)[C@@H]1[C@]1(O)C[C@H]3O[C@]34C(=O)O[C@H]2[C@]14C | 1.01 |
| CC1/C(=N\O)C[C@@H]2C[C@H]1C2(C)C (some centres undefined) | 1.04 |
| C[C@]12CC(=O)C3C(CC[C@@H]4C[C@H](O)CC[C@]34C)C1CC[C@]2(O)C(=O)CO (some centres undefined) | 1.01 |
| CC(=O)OCC(=O)[C@@]1(O)CCC2C3CCC4=CC(=O)CC[C@]4(C)C3C(=O)C[C@@]21C (some centres undefined) | 1.01 |
| CC(C(=O)O)c1cccc(C(=O)c2ccccc2)c1 (centres undefined) | 0.969 |
| C[C@]12CCC(=O)C=C1CCC1C2CC[C@@]2(C)C1CC[C@@H]2O (some centres undefined) | 1.02 |
| COc1cc2c(cc1OC)Cc1cc(OC)c(OC)cc1Cc1cc(OC)c(OC)cc1C2 | 1.02 |
| CCS(=O)CCSP(=O)(OC)OC (centres undefined) | 1.01 |
| Cc1c(O)c(C(=O)CC(C)C)c2oc3c(C(=O)CC(C)C)c(O)c(C)c(O)c3c2c1O | 0.997 |

Each recorded value in this set is attributed to PubChem BioAssay AID1159580.
